- Test system: HCV polymerase (Hepatitis C virus genotype 1b)
Quantity name: pIC50
pIC50 is defined as minus the log10 of a concentration measured in mol/L.

Solved cases below.
>  <Compound>
O=C(O)c1sc(-c2ccccc2)cc1N1C(=O)CN(S(=O)(=O)c2ccc(-c3ccccc3)cc2)CC1C1CCCCC1 (centres unmarked) [Compound 60]

>  <Test system>
HCV polymerase (Hepatitis C virus genotype 1b)

>  <pIC50>
8.05

$$$$
>  <Compound>
CC1(O)CCN(c2ccc(S(=O)(=O)N3CC(=O)N(c4cc(-c5ccc(F)cc5)sc4C(=O)O)[C@H](C4CCCCC4)C3)cn2)C1 (some centres unmarked) [Compound 288]

>  <Test system>
HCV polymerase (Hepatitis C virus genotype 1b)

>  <pIC50>
8.70

$$$$
>  <Compound>
C[C@@H]1COCCN1c1ccc(S(=O)(=O)N2CC(=O)N(c3cc(-c4ccccc4)sc3C(=O)O)[C@H](C3CCCCC3)C2)cn1 [Compound 225]

>  <Test system>
HCV polymerase (Hepatitis C virus genotype 1b)

>  <pIC50>
9.00

$$$$

Which measured pIC50 belongs to CC(C)(C)C#Cc1cc(N2C(=O)[C@@H](O)CC[C@H]2C2CCCCC2)c(C(=O)O)s1 [Compound 322] , tested on HCV polymerase (Hepatitis C virus genotype 1b)?
8.22

Note, next up: O=C(O)c1sc(-c2ccccc2)cc1N1C(=O)CN(S(=O)(=O)c2ccc(Oc3ccccc3)cc2)CC1C1CCCCC1 (centres unmarked) [Compound 51]
7.96

Let us now turn to O=C(O)c1sc(-c2ccccc2)cc1N1C(=O)CN(S(=O)(=O)c2cccc(Cl)c2Cl)CC1C1CCCCC1 (centres unmarked) [Compound 111]
6.61

Cool, now CC(C)(C)C#Cc1cc(N2C(=O)CN(S(=O)(=O)c3cccc(C#N)c3)C[C@H]2C2CCCCC2)c(C(=O)O)s1 [Compound 259]
8.15

Can you handle Cc1ccc(-c2cc(N3C(=O)CN(S(=O)(=O)c4ccc(N5CCOCC5)nc4)C[C@H]3C3CCCCC3)c(C(=O)O)s2)cc1 [Compound 187] next?
9.00

Okay, and N[C@H]1CCN(c2ccc(S(=O)(=O)N3CC(=O)N(c4cc(-c5ccccc5)sc4C(=O)O)[C@H](C4CCCCC4)C3)cn2)C1 [Compound 144] ?
8.70
